Tested on: Human papillomavirus type 1a E7 protein (residues 1-88)
method: HPV1a E7 small-molecule binders, primary screen, biochemical, small-molecule microarray, residues 1-88, 635 nm (AID 1129)
condition_parameters: small-molecule microarray binding, fluorescence 635 nm; higher = more signal

item_smiles: COc1ccc([Si](C)(C)[C@H]2[C@H](CC(=O)N3Cc4ccccc4C[C@H]3CO)O[C@@]3(C(=O)N(Cc4cccc(I)c4)c4ccccc43)[C@@H]2C)cc1
target_under_test: Human papillomavirus type 1a E7 protein (residues 1-88)
composite z-score: 0.0688
--
item_smiles: CCCNC(=O)[C@@]1(C)c2ccccc2C(=O)N(Cc2cc(F)cc(C(F)(F)F)c2)[C@H]1c1ccc(CO)cc1
target_under_test: Human papillomavirus type 1a E7 protein (residues 1-88)
composite z-score: -0.331
--
item_smiles: C=C(COC)/C(=C/C[C@H](OC(C)=O)c1ccccc1OCCO)c1cnc2ccccc2c1
target_under_test: Human papillomavirus type 1a E7 protein (residues 1-88)
composite z-score: 0.977
--
item_smiles: C=CC[C@]1(C(=O)O)N=C(c2ccc(OCCCO)cc2)O[C@H]1c1ccccc1CN=[N+]=[N-]
target_under_test: Human papillomavirus type 1a E7 protein (residues 1-88)
composite z-score: -0.583

* * *

method: hepatitis C replication reporter changes, two-sided – Huh7 cells, luciferase reporter, HCV replication inhibitor project, primary screen (AID 1109);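 note: huh7 hepatoma cells harbouring a luciferase neomycin HCV replicon reporter; luciferase luminescence as measure of HCV replicon replication; test concentration not given here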
condition_parameters: Huh7 HCV replicon luciferase reporter, 48 h; higher = more signal
Items are presented alongside their recorded z-score.
endpoint_name: z-score

compound: COC(=O)C(CC#Cc1ccc2c(c1)[C@]1(C(=O)N2)[C@H](C(=O)N2CCCCCCC2)[C@H]2C(=O)O[C@H](c3ccccc3)[C@H](c3ccccc3)N2[C@@H]1c1ccccc1OCCO)C(=O)OC
endpoint_name: z-score
value_measured: -1.88

compound: C[C@H]1C2[C@H](Cc3ccccc3)NC(=O)[C@]23C(=O)N[C@H](Cc2ccccc2)C(=O)N[C@H](Cc2ccccc2)C(=O)NC/C=C/CCC/C=C/C3[C@@H]2O[C@]12C (some centres undefined)
endpoint_name: z-score
value_measured: 0.554

compound: C=CC[C@]1(C(=O)NCCN2CCOCC2)N=C(c2ccc(OCCCO)cc2)O[C@H]1c1ccccc1N=[N+]=[N-]
endpoint_name: z-score
value_measured: -0.44

compound: Cc1cccc(/C=C/C=O)c1
endpoint_name: z-score
value_measured: 0.33

compound: O=C(NCc1ccccc1)[C@@H]1c2ccccc2C(=O)N(Cc2cc(F)cc(C(F)(F)F)c2)[C@H]1c1ccc(CO)cc1
endpoint_name: z-score
value_measured: -0.132

compound: O=c1cccc(-c2ccccc2)o1
endpoint_name: z-score
value_measured: -0.144

compound: COC(=O)[C@@]1(Cc2ccc(OC)cc2)[C@H]2c3cc(C(=O)N4CCCC4)n(C[C@H](O)CO)c3C[C@H]2CN1C(=O)c1ccccc1
endpoint_name: z-score
value_measured: -0.439

compound: COC(=O)[C@@]1(Cc2ccc(OC)cc2)[C@H]2c3cc(C(=O)N(C)C)n(CCSCCO)c3C[C@H]2CN1C(=O)c1ccccc1
endpoint_name: z-score
value_measured: -1.41

compound: CCOC(=O)C[C@H]1[C@H](OC(=O)c2ccc(C(=O)c3ccccc3)cc2)[C@@H](NC(=O)c2ccc3ccccc3n2)c2cc(OCCCO)ccc2N1C(=O)c1ccc2ccccc2n1
endpoint_name: z-score
value_measured: -0.931

compound: O=C1O[C@@H](c2ccccc2)[C@@H](c2ccccc2)N2[C@@H](c3ccc(O)cc3)[C@]3(C(=O)Nc4ccccc43)[C@@H](C(=O)N3CCCCCCC3)[C@H]12
endpoint_name: z-score
value_measured: -1.93

compound: O=C1C2C=CC(C(O)CCc3ccccc3)N(Nc3ccccc3)C2C(=O)N1c1ccccc1 (centres undefined)
endpoint_name: z-score
value_measured: 0.123

compound: C=CCNC(=O)[C@H]1[C@@H]2C(=O)O[C@@H](c3ccccc3)[C@@H](c3ccccc3)N2[C@@H](c2ccc(O)cc2)[C@]12C(=O)Nc1ccc(C#Cc3ccc(OC)cc3)cc12
endpoint_name: z-score
value_measured: -2.06

compound: NC(=O)NCC#Cc1ccc2c(c1)[C@]1(C(=O)N2)[C@H](c2ccccc2OCCO)N2[C@H](c3ccccc3)[C@H](c3ccccc3)OC(=O)[C@H]2[C@@H]1C(=O)N1CCCCCCC1
endpoint_name: z-score
value_measured: -0.968

compound: [N-]=[N+]=NCc1ccccc1[C@@H]1OC(c2ccc(OCCCO)cc2)=N[C@]1(Cc1ccccc1N=[N+]=[N-])C(N)=O
endpoint_name: z-score
value_measured: -0.613

* * *

System: Neuregulin-1 EGF-like domain
method: small molecules binding NRG1 EGF domain – biochemical, small-molecule microarray, 635 nm fluorescence, primary screen (AID 1081);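 note: binding of the protein to compounds printed on small-molecule microarray slides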
condition_parameters: higher = more signal
Please note: label 1 applies when composite z-score is 1 or greater, and label 0 applies otherwise.

compound: CC(=O)NCCCC[C@@H]1NC(=O)[C@@H]2C[C@H](C(=O)NCCCCCC[N+](C)(C)C)[C@H](c3cccc(OCCO)c3)N2C1=O
class: label 1
//
compound: CCN(CC)c1ccc(N2CC=CC34O[C@@H]5/C=C\CCCOC(=O)C5[C@H]3C(=O)N(CCCO)[C@@H]4C2=O)cc1 (stereo partly drawn)
class: label 0
//
compound: COC(=O)[C@@]1(Cc2ccc(F)cc2)[C@H]2c3cc(C(=O)N(C)C)n(CCCNc4ccc(C(F)(F)F)cc4Cl)c3C[C@H]2CN1C(=O)c1ccccc1
class: label 1
//
compound: CC(C)C(=C=CC[C@H](O)c1ccccc1OCCO)CCO
class: label 0
//
compound: CO[C@H]1O[C@H](CO)[C@@H](OC(=O)Nc2cccc(F)c2)[C@H](OC(=O)Nc2ccccc2-c2ccccc2)[C@@H]1OC(=O)Nc1ccccc1-c1ccccc1
class: label 1
//
compound: CCCC[C@@H]1C[C@H]1[C@@H](NC(=O)c1ccccc1)c1ccccc1
class: label 0
//
compound: O=C1C2C=CC(C(O)CCc3ccccc3)N(Nc3ccccc3)C2C(=O)N1c1ccccc1 (stereo not drawn)
class: label 1
//
compound: CCCCC(=C=CC[C@H](O)c1ccccc1OCCO)C[C@H](O)c1cc(Cl)cc(Cl)c1O
class: label 1

* * *

method: compound effects on lung adenocarcinoma cell viability – A549, calcein-AM fluorescence, 48 h, basal, profiling panel (AID 1162); note: test concentration not given here
condition_parameters: higher = more signal
# binarize z-score: threshold 0.4 inclusive, high side true (1), low side false (0)

item_smiles: Cc1ccc(S[C@]2(C(=O)NCCCN(C)C)CC(=O)N(Cc3ccccc3)[C@@H]2c2ccc(CO)cc2)cc1
class: true (1)
//
item_smiles: Cc1ccc(N2C(=O)c3ccccc3[C@@H](C(=O)NC(C)C)[C@@H]2c2ccc(CO)cc2)nc1
class: false (0)
//
item_smiles: COCCn1c(C(=O)N(C)C)cc2c1C[C@H]1CN(C(=O)c3ccccc3)[C@@](Cc3ccc(F)cc3)(C(=O)OC)[C@@H]21
class: true (1)
//
item_smiles: O=C1O[C@@H](c2ccccc2)[C@@H](c2ccccc2)N2[C@@H](c3ccc(O)cc3)[C@]3(C(=O)Nc4ccccc43)[C@@H](C(=O)N3CCCCCCC3)[C@H]12
class: false (0)
//
item_smiles: Cc1ccc(S[C@]2(C(=O)NCCN3CCOCC3)CC(=O)N(C3CCCCC3)[C@@H]2c2ccc(CO)cc2)cc1
class: true (1)
//
item_smiles: C[N+](C)(C)CCCC[C@@H]1NC(=O)[C@H]2C[C@@H](C(=O)O)[C@@H](c3cccc(OCCO)c3)N2C1=O
class: false (0)
//
item_smiles: COC(=O)[C@@]1(Cc2ccc(F)cc2)[C@H]2c3cc(C(=O)N(C)C)n(CCCNc4ccc(C(F)(F)F)cc4Cl)c3C[C@H]2CN1C(=O)c1ccccc1
class: false (0)

* * *

method: change in splice reporter luminescence, either direction, cell-based, HEK293, spliceosome inhibition project, primary screen (AID 1101);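 note: HEK293 cells carrying a splicing-competent luciferase reporter gene; test concentration not given here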
condition_parameters: HEK293 splicing luciferase reporter, 24 h, higher = more signal, called active from +8 up or from −8 down
Note: every record was labeled by where its z-score sits among group 1 (below -1), group 2 (-1 to below 0.004), group 3 (0.004 or more)

compound: C=C[C@H](OC)[C@@H](OC(=O)Nc1ccc(SC)cc1)c1ccc(OCCO)cc1
class: group 1
//
compound: C[C@]1(C(=O)NCC(F)(F)F)c2ccccc2C(=O)N(Cc2cc(F)cc(C(F)(F)F)c2)[C@H]1c1ccc(CO)cc1
class: group 2
//
compound: CO[C@H]1O[C@H](CO)[C@@H](OC(=O)Nc2ccccc2-c2ccccc2)[C@H](OC(=O)Nc2ccccc2-c2ccccc2)[C@H]1OC(=O)Nc1ccccc1-c1ccccc1
class: group 2
//
compound: O=S(=O)(NCCCO)c1ccc(Br)cc1
class: group 1
//
compound: C=CCC(OC(C)=O)[C@@H]1[C@@H](N(Cc2ccc(-c3cccc(C(F)(F)F)c3)o2)C(=O)Cc2ccc(OC)cc2)c2cc(OCCCO)ccc2N1C(=O)Cc1ccc(OC)cc1 (stereo not given in full)
class: group 1
//
compound: CC(C)NC(=O)[C@@H]1c2ccccc2C(=O)N(C2CCCCC2)[C@H]1c1ccc(CO)cc1
class: group 3
//
compound: CCCCN1CC=CC23O[C@@H]4C=CCCOC(=O)C4[C@H]2C(=O)N(CCCO)[C@@H]3C1=O (stereo not given in full)
class: group 1
//
compound: C/C=C/[C@H](CCn1cc([C@H](O)c2ccccc2)nn1)[Si](C)(C)c1ccc(OC)cc1
class: group 3
//
compound: Cc1ccc(S[C@]2(C(=O)NCC(C)C)CC(=O)N(Cc3ccccc3)[C@@H]2c2ccc(CO)cc2)cc1
class: group 2
//
compound: COc1ccc([Si](C)(C)[C@H]2[C@H](CC(=O)N3Cc4ccccc4C[C@H]3CO)O[C@@]3(C(=O)N(Cc4cccc(I)c4)c4ccccc43)[C@@H]2C)cc1
class: group 1
//
compound: COC(=O)[C@@]1(Cc2ccc(OC)cc2)[C@H]2c3cc(C(=O)N4CCCC4)n(C[C@H](O)CO)c3C[C@H]2CN1C(=O)c1ccccc1
class: group 3
//
compound: Cc1ccc(S[C@]2(C(=O)NCCCN(C)C)CC(=O)N(Cc3ccccc3)[C@@H]2c2ccc(CO)cc2)cc1
class: group 2
//
compound: CCOC(=O)C[C@H]1[C@H](OC(=O)c2ccc(C(=O)c3ccccc3)cc2)[C@@H](NC(=O)c2ccc3ccccc3n2)c2cc(OCCCO)ccc2N1C(=O)c1ccc2ccccc2n1
class: group 2
//
compound: CN(C)CCCCCCNC(=O)[C@@H]1C[C@@H]2C(=O)N[C@@H](Cc3ccccc3)C(=O)N2[C@@H]1c1cccc(OCCO)c1
class: group 2
//
compound: C=CC[C@@]1(C(=O)NCc2ccccc2)N=C(c2ccc(OCCCO)cc2)O[C@@H]1c1ccccc1CN=[N+]=[N-]
class: group 3
